# measured-target: T1, human glucose-dependent insulinotropic polypeptide (GIP) receptor (human, UniProt P48546 22-466)
# T1 sequence (looked up): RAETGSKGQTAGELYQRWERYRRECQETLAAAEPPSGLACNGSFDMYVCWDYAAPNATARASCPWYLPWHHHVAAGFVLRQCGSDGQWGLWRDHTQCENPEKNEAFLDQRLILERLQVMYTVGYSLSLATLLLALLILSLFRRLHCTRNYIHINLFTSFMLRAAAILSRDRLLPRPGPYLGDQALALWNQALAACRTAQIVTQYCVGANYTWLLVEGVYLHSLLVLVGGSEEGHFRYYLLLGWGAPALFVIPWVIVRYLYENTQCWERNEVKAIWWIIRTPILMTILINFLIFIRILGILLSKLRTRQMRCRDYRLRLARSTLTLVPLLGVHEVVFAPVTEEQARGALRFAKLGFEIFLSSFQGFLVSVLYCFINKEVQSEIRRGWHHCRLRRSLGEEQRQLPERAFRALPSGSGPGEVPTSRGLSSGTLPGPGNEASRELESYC
# procedure-details: cell-based or functional assay
Doc: threshold 30 pM (exclusive). Items with cAMP EC50 beneath it return 1; others return 0.

Data request: Take the binder YXEGTXTSDXSIXLDXKAQXEFIXXLIEGGPSSGAPPPSK (Aib2, αMeF(2F)6, 4Pal10, αMeL13, Orn16, K17(Z), Aib20, D-Glu24, αMeY25, K40(Z), C-terminal NH2; Z = AEEA2-(γ-Glu)-(11-(4-carboxyphenoxy)undecanoyl)) [Example 285] and say whether its cAMP EC50 is less than 30 pM.
Data returned: 1

Data request: Strictly below 30 pM: is that where cAMP EC50 of YXEGTXTSDXSIXLDXKAQXEFIEXLIEGGKSSGAPPPS (Aib2, αMeF(2F)6, 4Pal10, αMeL13, Orn16, K17(Z), Aib20, αMeF25, K31(Z), C-terminal NH2; Z = AEEA2-(γ-Glu)-CO-(CH2)12-CO2H) [Example 159] sits?
Data returned: 1

Data request: Is it true that cAMP EC50 reported for YXEGTXTSDXSIXLDXIAQXEFIKXLIEGGPSSGAPPPSK (Aib2, αMeF(2F)6, 4Pal10, αMeL13, Orn16, Aib20, K24(Z), αMeY25, K40(Z), C-terminal NH2; Z = AEEA2-CO-(CH2)12-CO2H) [Example 194] is less than 30 pM?
Data returned: 1

Data request: Does the reported cAMP EC50 of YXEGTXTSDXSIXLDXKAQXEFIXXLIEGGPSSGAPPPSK (Aib2, αMeF(2F)6, 4Pal10, αMeL13, Orn16, K17(Z), Aib20, D-Glu24, αMeY25, K40(Z), C-terminal NH2; Z = AEEA2-CO-(CH2)12-CO2H) [Example 221] stay below 30 pM?
Data returned: 1

Data request: Item YXEGTXTSDXSIXLDXIAQXKFIXXLIKGGPSSGAPPPS (Aib2, αMeF(2F)6, 4Pal10, αMeL13, Orn16, Aib20, K21(Z), D-Glu24, αMeY25, K28(Z), C-terminal NH2; Z = AEEA2-(γ-Glu)-(11-(4-carboxyphenoxy)undecanoyl)) [Example 287] : cAMP EC50 beneath 30 pM, strictly?
Data returned: 1

Data request: Hi there! Is cAMP EC50 for YXEGTXTSDXSIXLDXIAQXEFIKXLIKGGPSSGAPPPS (Aib2, αMeF(2F)6, 4Pal10, αMeL13, Orn16, Aib20, K24(Z), αMeY25, K28(Z), C-terminal NH2; Z = AEEA2-(γ-Glu)-(11-(4-carboxyphenoxy)undecanoyl)) [Example 286] below 30 pM, do you know?
Data returned: 0

Data request: Identify whether the binder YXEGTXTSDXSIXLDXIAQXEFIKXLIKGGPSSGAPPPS (Aib2, αMeF(2F)6, 4Pal10, αMeL13, Orn16, Aib20, K24(Z), αMeY25, K28(Z), C-terminal NH2; Z = AEEA2-(γ-Glu)-(10-(4-carboxyphenoxy)decanoyl)) [Example 274] records cAMP EC50 below 30 pM.
Data returned: 1

Data request: Answer whether the binder YXEGTXTSDXSIXLDXKAQXKFIXXLIEGGPSSGAPPPS (Aib2, αMeF(2F)6, 2Nal10, αMeL13, Orn16, K17(Z), Aib20, K21(Z), D-Glu24, αMeY25, C-terminal NH2; Z = AEEA2-(γ-Glu)-(10-(4-carboxyphenoxy)decanoyl)) [Example 281] has cAMP EC50 strictly less than 30 pM
Data returned: 1

Data request: Would you kindly verify if cAMP EC50 of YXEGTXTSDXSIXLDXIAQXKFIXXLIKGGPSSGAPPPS (Aib2, αMeF(2F)6, 2Nal10, αMeL13, Orn16, Aib20, K21(Z), D-Glu24, αMeY25, K28(Z), C-terminal NH2; Z = AEEA2-(γ-Glu)-(10-(4-carboxyphenoxy)decanoyl)) [Example 284] is strictly less than 30 pM?
Data returned: 0

Data request: State whether 30 pM exceeds cAMP EC50 recorded for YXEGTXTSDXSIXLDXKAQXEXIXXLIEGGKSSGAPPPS (Aib2, αMeF6, 4Pal10, αMeL13, Orn16, K17(Z), Aib20, αMeF22, D-Glu24, αMeY25, K31(Z), C-terminal NH2; Z = AEEA2-(γ-Glu)-CO-(CH2)10-CH3) [Example 173] .
Data returned: 1

Data request: I'd appreciate it if you could check whether YXEGTXTSDXXIXLDXKAQXEFIXXLIEGGKSSGAPPPS (Aib2, αMeF(2F)6, 4Pal10, Dap11, αMeL13, Orn16, K17(Z), Aib20, D-Glu24, αMeY25, K31(Z), C-terminal NH2; Z = AEEA2-(γ-Glu)-CO-(CH2)12-CO2H) [Example 199] has cAMP EC50 smaller than 30 pM.
Data returned: 0

Data request: Consider the binder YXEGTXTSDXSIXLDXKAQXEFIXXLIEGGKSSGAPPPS (Aib2, αMeF(2F)6, 4Pal10, αMeL13, Orn16, K17(Z), Ac5c20, D-Glu24, αMeY25, K31(Z), C-terminal NH2; Z = AEEA2-(γ-Glu)-CO-(CH2)12-CO2H) [Example 170] . Is its cAMP EC50 strictly less than 30 pM?
Data returned: 1

Data request: Please let me know if YXEGTXTSDXXIXLDXKAQXEFIKXLIEGGPSSGAPPPS (Aib2, αMeF(2F)6, 4Pal10, αMeS11, αMeL13, Orn16, K17(Z), Aib20, K24(Z), αMeY25, C-terminal NH2; Z = AEEA2-(γ-Glu)-CO-(CH2)12-CO2H) [Example 214] shows cAMP EC50 below 30 pM.
Data returned: 0
